Taken from patent US20190106460A1.

// reported IC50 per item
Target: T1, βTrCP (tag cleaved and complexed with Skp1) (UniProt Q9Y297 175-605; P63208 1-163)
T1 construct: Protein of the FP assay (0.035 µM); also called Beta Transducin repeat-containing protein; βTrCP/Skp1
T1 sequence (Q9Y297 175-605, chain 1 of 2): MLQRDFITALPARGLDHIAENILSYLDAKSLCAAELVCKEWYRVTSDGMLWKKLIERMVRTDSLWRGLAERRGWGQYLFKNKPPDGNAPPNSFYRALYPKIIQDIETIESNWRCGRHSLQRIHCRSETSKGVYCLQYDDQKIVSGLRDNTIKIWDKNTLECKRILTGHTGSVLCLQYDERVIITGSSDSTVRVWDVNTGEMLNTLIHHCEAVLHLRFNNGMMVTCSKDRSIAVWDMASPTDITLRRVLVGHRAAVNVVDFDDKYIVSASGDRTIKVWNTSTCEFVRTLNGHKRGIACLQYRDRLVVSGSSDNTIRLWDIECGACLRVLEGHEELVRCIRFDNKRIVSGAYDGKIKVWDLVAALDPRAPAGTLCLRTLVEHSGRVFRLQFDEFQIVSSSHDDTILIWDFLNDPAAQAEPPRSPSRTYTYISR
T1 sequence (P63208 whole entry, chain 2 of 2): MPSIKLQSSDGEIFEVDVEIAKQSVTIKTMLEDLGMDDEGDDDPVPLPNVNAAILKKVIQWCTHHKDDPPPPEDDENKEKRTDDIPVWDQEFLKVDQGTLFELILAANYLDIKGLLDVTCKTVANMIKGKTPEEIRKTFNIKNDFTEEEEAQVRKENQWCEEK
Test: FP competition vs fluorescein-IκB peptide
Non-standard residues stand in square brackets, D forms with d. *: point of attachment. Benzenesulfonyl(4-OMe) = COc1ccc(S(=O)(=O)*)cc1; 2Naphthylsulfonyl = O=S(=O)(c1ccc2ccccc2c1)*; 4‑(BuO)‑PhSO2 = CCCCOc1ccc(S(=O)(=O)*)cc1; Phe(3-F) = N[C@@H](Cc1cccc(F)c1)C(=O)O; Tos = Cc1ccc(S(=O)(=O)*)cc1; Propionyl = CCC(=O)*; Moc = COC(=O)*
endpoint: IC50 (nM)

* 2Naphthylsulfonyl-[dD]EG[Phe(3-F)]WE-NH2 (SMILES NC(=O)[C@H](CCC(=O)O)NC(=O)[C@H](Cc1c[nH]c2ccccc12)NC(=O)[C@H](Cc1cccc(F)c1)NC(=O)CNC(=O)[C@H](CCC(=O)O)NC(=O)[C@@H](CC(=O)O)NS(=O)(=O)c1ccc2ccccc2c1, also called UBP031) [2-NaphthylSO2-dEGF(3F)WE-NH2] | 44
* {4‑(BuO)‑PhSO2}-[dD]EG[Phe(3-F)]WE-NH2 (also called UBP030) [4-(BuO)-PhSO2-dEGF(3F)WE-NH2] | 56
* Propionyl-[dD]EG[Phe(3-F)]WE-NH2 (also called UBP019) [Et(CO)-dEGF(3F)WE-NH2] | 145
* Ac-[dD]EG[Phe(3-F)]WE-NH2 (also called UBP017) [Ac-dEGF(3F)WE-NH2] | 102
* Tos-DEG[Phe(3-F)]WE-NH2 (SMILES Cc1ccc(S(=O)(=O)N[C@@H](CC(=O)O)C(=O)N[C@@H](CCC(=O)O)C(=O)NCC(=O)N[C@@H](Cc2cccc(F)c2)C(=O)N[C@@H](Cc2c[nH]c3ccccc23)C(=O)N[C@@H](CCC(=O)O)C(N)=O)cc1, also called UBP024) [Ts-DEGF(3F)WE-NH2] | 18
* {Benzenesulfonyl(4-OMe)}-[dD]EG[Phe(3-F)]WE-NH2 (SMILES COc1ccc(S(=O)(=O)N[C@H](CC(=O)O)C(=O)N[C@@H](CCC(=O)O)C(=O)NCC(=O)N[C@@H](Cc2cccc(F)c2)C(=O)N[C@@H](Cc2c[nH]c3ccccc23)C(=O)N[C@@H](CCC(=O)O)C(N)=O)cc1, also called UBP022) [4-(MeO)-PhSO2-dEGF(3F)WE-NH2] | 17
* Tos-[dD]EG[Phe(3-F)]WD-NH2 (SMILES Cc1ccc(S(=O)(=O)N[C@H](CC(=O)O)C(=O)N[C@@H](CCC(=O)O)C(=O)NCC(=O)N[C@@H](Cc2cccc(F)c2)C(=O)N[C@@H](Cc2c[nH]c3ccccc23)C(=O)N[C@@H](CC(=O)O)C(N)=O)cc1, also called UBP027) [Ts-dEGF(3F)WD-NH2] | 34
* Moc-[dD]EG[Phe(3-F)]WE-NH2 (SMILES COC(=O)N[C@H](CC(=O)O)C(=O)N[C@@H](CCC(=O)O)C(=O)NCC(=O)N[C@@H](Cc1cccc(F)c1)C(=O)N[C@@H](Cc1c[nH]c2ccccc12)C(=O)N[C@@H](CCC(=O)O)C(N)=O, also called UBP020) [MeO(CO)-dEGF(3F)WE-NH2] | 76
